System: OVCAR-8 ovarian
Assay: NCI tumour cell line growth inhibition, 48 h
Where a SMILES comes first, the peptide text is derived from it. [ ]: non-standard residue; d: D form. The star is where a group is joined. Bn2Val = CC(C)[C@@H](C(=O)*)N(Cc1ccccc1)Cc1ccccc1; NHPiperonyl = c1cc2c(cc1CN*)OCO2; NMeV = CN[C@H](C(=O)O)C(C)C; dNMeA = CN[C@H](C)C(=O)O
observation type: TGI

Fill blank: measured TGI of the molecule Cn1cc(S(=O)(=O)NC(=O)Nc2ccc(Cl)cc2)c(=O)c2ccc(Cl)cc21 is ____.
> 100 µM

Same thing, different molecule: O=C(N/C(=C\NC1=NCCS1)C(=O)N1CSC[C@@H]1C(=O)O)c1ccccc1
> 100 µM

Same thing, different molecule: Nc1c(C(=O)c2cccc(C(O)(CO)CO)c2)cnn1-c1ccc(F)cc1
> 25 µM

Same thing, different molecule: O=C1C(=Cc2cccc(Cl)c2)N=C(c2ccccc2)N1n1c(-c2ccccc2)nc2ccccc2c1=O
> 100 µM

Same thing, different molecule: Cc1c(C)n(CC(O)CNC2CCCCC2C)c2ccccc12 (centres undefined)
31.2 µM

Same thing, different molecule: CCCCCCCCCCCCCCCCSS(C)(=O)=O
58.7 µM

Same thing, different molecule: COC1CC(=O)C2C(=O)N(c3ccccc3)C(=O)C23C(C(=O)c2ccccc2)=C(C)NC13O (centres undefined)
> 100 µM

Same thing, different molecule: Cc1cc2nn(C3CCCCO3)nc2cc1C (centres undefined)
> 100 µM

Same thing, different molecule: O=C1CSC(c2c[nH]c3ccccc23)N1c1cccc([N+](=O)[O-])c1 (centres undefined)
> 100 µM

Same thing, different molecule: Nc1ncnc2c1ncn2C1OC(CO)CC1O (centres undefined)
49.6 µM

Same thing, different molecule: Cc1cc(NCCCNc2ccnc3cc(Cl)ccc23)nc(Nc2ccc(C(=O)N3CCCCC3)cc2)n1
12.4 µM

Same thing, different molecule: Clc1ccc(-c2c3nc(c(-c4ccc(Cl)cc4)c4ccc([nH]4)c(-c4ccc(Cl)cc4)c4nc(c(-c5ccc(Cl)cc5)c5ccc2[nH]5)C=C4)C=C3)cc1
> 100 µM

Same thing, different molecule: O=C1C[C@@H]2[C@@H](C=CC23CC3)N1O
> 100 µM

Same thing, different molecule: Cc1nc2ccccc2c(=O)n1Nc1ccc(C(=O)O)cc1
> 100 µM

Same thing, different molecule: CCOC(=O)CCC(NC(=O)C(CCC(=O)OCC)NC(=O)C(Cc1ccc([N+](=O)[O-])cc1)NC(C)=O)C(=O)NNC(=O)OC(C)(C)C (centres undefined)
> 100 µM

Same thing, different molecule: CS(=O)(=O)c1nccc(-c2c(-c3cccc(OCc4ccccc4)c3)nc3sccn23)n1
> 100 µM

Same thing, different molecule: C=CC1CC12C(=O)C1OC2(C)C2C(=O)c3c(O)cccc3C(=O)C12 (centres undefined)
> 100 µM

Same thing, different molecule: CC(C)[C@H](NC(=O)[C@H](C(C)C)N(Cc1ccccc1)Cc1ccccc1)C(=O)N(C)[C@H](C(=O)N1CCC[C@H]1C(=O)N(C)[C@H](C)C(=O)NCc1ccc2c(c1)OCO2)C(C)C (Bn2Val-V[NMeV]P[dNMeA]-NHPiperonyl)
> 100 µM

Same thing, different molecule: COc1ccc(C(=O)NNC(=O)c2nsc3ccccc23)cc1
> 100 µM

====

System: SF-268 CNS
Assay: NCI tumour cell line growth inhibition, 48 h
observation type: TGI

Fill blank: measured TGI of the compound Cc1cc(N(CCC#N)CCC#N)ccc1/C=C(\NC(=O)/C=C/c1ccccc1)NC(=O)Nc1ccccc1C is ____.
> 100 µM

Same thing, different compound: Clc1ccc(C2ON=C(c3ccccc3)N2C23CC4CC(CC(C4)C2)C3)cc1Cl (stereo not drawn)
> 10 µM

Same thing, different compound: CC1(C)CCCC2(C)C3=C(CCC12)C(=O)OC3 (stereo not drawn)
> 100 µM

Same thing, different compound: O=C1CC2(CCN(CC3COc4ccccc4O3)CC2)C(=O)N1N1CCCCCC1 (stereo not drawn)
> 100 µM

Same thing, different compound: COc1cc(/C=C/C(=O)c2ccc(F)cc2)ccc1OCCCCOc1cc2c(cc1OC)C(=O)N1CCCC1C=N2 (stereo not drawn)
12.5 µM

Same thing, different compound: O=S(=O)(Nc1nc2ccccc2nc1Nc1cccc2ccccc12)c1ccccc1
> 100 µM

Same thing, different compound: Nc1nc(N)c2c(CCc3ccc(C(=O)N[C@@H](CCC(=O)O)C(=O)O)cc3)ccnc2n1
> 100 µM

Same thing, different compound: Clc1ccc(-c2c3nc(c(-c4ccc(Cl)cc4)c4ccc([nH]4)c(-c4ccc(Cl)cc4)c4nc(c(-c5ccc(Cl)cc5)c5ccc2[nH]5)C=C4)C=C3)cc1
> 100 µM

====

Field: TGI. Provide a value for each of the molecules that follow.
Tested on: UACC-257 melanoma
Assay: NCI tumour cell line growth inhibition, 48 h

Fill blank: measured TGI of the molecule S=C(Nc1ccc(Cl)cc1)c1ccc(CN2CCCCC2)s1 is ____.
> 100 µM

Same thing, different molecule: CC(C)NC1CCCCC2c3cc(F)ccc3[C@]12O (some centres undefined)
> 100 µM

Same thing, different molecule: Cc1cccc(C)c1NC(=O)C(=O)C(c1ccccc1Cl)S(=O)(=O)Cc1ccccc1Cl (centres undefined)
> 100 µM

Same thing, different molecule: C[C@]12CC/C(=N\O)C[C@@H]1CC[C@@H]1[C@@H]2CC[C@]2(C)/C(=N/O)CC[C@@H]12
> 100 µM

Same thing, different molecule: CC(=O)O[C@H]1C[C@H]2[C@@H]([C@H](OC(C)=O)C[C@@H]3CC4(CC[C@@]32C)OOC2(CCCCC2)OO4)[C@@H]2CC[C@H]([C@H](C)CCC(N)=O)[C@@]12C
19.9 µM

Same thing, different molecule: O=C(O)COc1cc(-c2ccccc2F)nc2cc3c(cc12)OCO3
> 100 µM

Same thing, different molecule: C=C1CC(COc2ccc3c(C)c(Cl)c(=O)oc3c2)(c2ccccc2)OC1=O (centres undefined)
4.01 µM

Same thing, different molecule: C=CC(C)CCC(C/C=C(\C)CCCC(C)C)C(=C)CCCC(C)C (centres undefined)
> 100 µM

Same thing, different molecule: O=c1oc2cc(O)ccc2c(O)c1C(c1ccc2ccccc2c1)c1c(O)c2ccc(O)cc2oc1=O
> 100 µM

====

Field: TGI. Provide a value for each of the compounds that follow.
System: M14 melanoma
Assay: NCI tumour cell line growth inhibition, 48 h

Fill blank: measured TGI of the compound C=C(c1ccccc1)[C@@]1(O)CCCC[C@H]1NC(c1ccccc1)c1ccccc1 is ____.
27.6 µM

Same thing, different compound: CC1=CC[C@@H]2[C@@H](CC[C@@]2(C)O)C(C)(C)[C@H]1CC[C@@H]1[C@@]2(C)CC[C@@H](O)C(C)(C)O[C@@H]2CC[C@]1(C)O
61.9 µM

Same thing, different compound: C=CC1CC12C(=O)C1OC2(C)C2C(=O)c3c(O)cccc3C(=O)C12 (stereo unspecified)
> 100 µM

Same thing, different compound: Nc1cc(N2CCOCC2)nc(=O)n1-c1ccccc1
> 100 µM

Same thing, different compound: Cc1cc(N2CCCCC2)nc(NCc2cc(Nc3ccnc4cc(Cl)ccc34)ccc2F)n1
3.69 µM

Same thing, different compound: O=C(O)\C=C/C=C/C=C/C=C/C(=O)O
> 100 µM

Same thing, different compound: CC(=O)N(CN1C(=O)CCC1C(=O)O)c1ccc(C)cc1 (stereo unspecified)
> 100 µM

Same thing, different compound: CC1(OCc2ccccc2)C(=O)N2C1N(C(=O)OCc1ccccc1)CC2(C)C (stereo unspecified)
> 100 µM

Same thing, different compound: Cc1cc(C)nc(NS(=O)(=O)c2ccc(Nc3nc4nc(NCc5ccccc5)nc(-c5ccc(O)cc5)c4c(=O)[nH]3)cc2)n1
> 100 µM

Same thing, different compound: COC1=CC(=O)c2c(O)c3c(c(O)c2C1=O)OC1(Oc2c(cc4cc(C)oc(=O)c4c2O)CC1O)C3O (stereo unspecified)
> 100 µM

Same thing, different compound: O=C1CC(c2ccccc2)NCCCCN2CC(CN1)C(C(O)c1ccccc1)C2=O (stereo unspecified)
> 100 µM

Same thing, different compound: c1cc2c(cc1NC1=NCCO1)CCCC2
12.2 µM

Same thing, different compound: CN1CCN2c3ccccc3CC(C#N)(C#N)C2C1 (stereo unspecified)
> 100 µM

Same thing, different compound: N=C(N)SC(c1ccccc1)c1ccccc1
23.7 µM

Same thing, different compound: O=C1CCN=C(NC(=O)C(F)(F)F)N1CCc1c[nH]c2ccccc12
> 100 µM

Same thing, different compound: COc1c(N2CCCCC2)c2c(=O)c3ccccc3oc2c2cc(C)oc12
53.6 µM

Same thing, different compound: CN(C)c1ccc(/C=N/NC(=O)CSc2nc3sc4c(c3c(=O)n2-c2ccccc2)CCCCC4)cc1
> 100 µM

Same thing, different compound: O=[N+]([O-])c1ccc(CSc2c3ccccc3nc3ccccc23)cc1
16.6 µM

Same thing, different compound: CC1(C)[C@H]2CC[C@](C)(C2)[C@]1(S)Cc1ccccn1
> 100 µM

Same thing, different compound: O=C1C(=Cc2cccc(Cl)c2)N=C(c2ccccc2)N1n1c(-c2ccccc2)nc2ccccc2c1=O
54.5 µM

Same thing, different compound: CC1(C)CC(=O)c2c([nH]c(=S)c(C#N)c2-c2ccc(Br)cc2)C1
> 100 µM
